- Target Entity: USP28Δtip L264F (Homo sapiens, UniProt Q96RU2, INS458SGSG/L264F)
- Sequence (Q96RU2 with tags, fused parts or gaps L264F/INS458SGSG): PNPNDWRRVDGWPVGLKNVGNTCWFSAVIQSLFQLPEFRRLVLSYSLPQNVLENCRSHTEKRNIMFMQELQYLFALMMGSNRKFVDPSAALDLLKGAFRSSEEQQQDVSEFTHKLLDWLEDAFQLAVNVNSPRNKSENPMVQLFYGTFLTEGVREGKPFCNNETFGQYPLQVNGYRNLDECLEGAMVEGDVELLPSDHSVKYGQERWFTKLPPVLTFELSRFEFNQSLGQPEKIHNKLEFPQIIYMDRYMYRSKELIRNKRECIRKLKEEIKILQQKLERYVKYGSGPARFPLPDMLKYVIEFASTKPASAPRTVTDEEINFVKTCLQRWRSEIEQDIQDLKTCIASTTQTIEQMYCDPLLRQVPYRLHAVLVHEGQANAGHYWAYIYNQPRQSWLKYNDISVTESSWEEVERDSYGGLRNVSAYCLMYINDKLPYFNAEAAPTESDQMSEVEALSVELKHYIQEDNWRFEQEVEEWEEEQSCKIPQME
- Measurement Description: Ub-Rho110 dose–response assay, USP28Δtip L264F
- Assay type: biochemical
- Recorded Conditions: USP28 - L264F; mean of replicates; read-out: IC50, mean and SD
Readout Kind: pIC50
FYI, pIC50 means -log10 of a concentration in mol per litre.

Ask: I have this compound here, Cc1ccc2c(N)c(C(=O)NC3CCc4cc(N5CC6CCC(C5)N6)ccc4C3)sc2n1 (stereo not shown) [FT206] , and I need its recorded pIC50.
Result: 5.90

---

- Target Entity: USP28Δtip H261A (Homo sapiens, UniProt Q96RU2, H261A/INS458SGSG)
- Measurement Description: Ub-Rho110 dose–response assay, USP28Δtip H261A
- Type: biochemical
- Recorded Conditions: USP28 - H261A; mean of replicates; read-out: IC50, mean and SD
Readout Kind: IC50 (nM)
Note: unit nM is implicit; provide only the numeric part.

Ask: Give IC50 (USP28Δtip H261A (Homo sapiens, UniProt Q96RU2, H261A/INS458SGSG)) of the following molecule: Cc1ccc2c(N)c(C(=O)NC3CCc4cc(N5CC6CCC(C5)N6)ccc4C3)sc2n1 (stereo not shown) [FT206]
Result: 1370

---

- Target Entity: USP28Δtip E366A (Homo sapiens, UniProt Q96RU2, E366A/INS458SGSG)
- Sequence (Q96RU2 with tags, fused parts or gaps E366A/INS458SGSG): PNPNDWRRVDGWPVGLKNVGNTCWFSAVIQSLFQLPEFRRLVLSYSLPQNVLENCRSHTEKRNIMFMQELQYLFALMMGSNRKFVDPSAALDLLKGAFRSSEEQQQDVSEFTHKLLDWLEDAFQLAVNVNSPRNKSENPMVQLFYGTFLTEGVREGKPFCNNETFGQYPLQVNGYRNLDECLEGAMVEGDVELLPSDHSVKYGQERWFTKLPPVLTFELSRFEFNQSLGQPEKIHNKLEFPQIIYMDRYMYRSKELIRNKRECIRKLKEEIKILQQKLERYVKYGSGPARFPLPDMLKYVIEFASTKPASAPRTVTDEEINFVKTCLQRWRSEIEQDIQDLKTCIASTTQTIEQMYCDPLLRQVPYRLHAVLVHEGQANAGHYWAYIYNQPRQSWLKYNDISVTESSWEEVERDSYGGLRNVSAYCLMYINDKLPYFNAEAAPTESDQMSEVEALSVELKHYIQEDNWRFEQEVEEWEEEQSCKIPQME
- Measurement Description: Ub-Rho110 dose–response assay, USP28Δtip E366A
- Type: biochemical
- Recorded Conditions: USP28 - E366A; mean of replicates; read-out: IC50, mean and SD
Readout Kind: IC50
Your reply should be a number followed by the unit it is expressed in.

Ask: Give IC50 (USP28Δtip E366A (Homo sapiens, UniProt Q96RU2, E366A/INS458SGSG)) of the following compound: Cc1ccc2c(N)c(C(=O)NC3CCc4cc(N5CC6CCC(C5)N6)ccc4C3)sc2n1 (stereo not shown) [FT206]
Result: 17.3 µM
